Record set: log10 Kd | Growth factor receptor-bound protein 2 (Homo sapiens) | literature, multiple sources.
Measured parameter: log10 Kd (log10 of the value in nM)

1. NC(=O)C[C@@H]1NC(=O)C2(CCCCC2)NC(=O)[C@H](Cc2ccc(CP(=O)(O)O)cc2)NC(=O)Cn2cc(nn2)CCCNC1=O : 2.36
2. Cc1ccc2c(ccn2C[C@@H]2C/C=C/[C@H](c3ccc(CP(=O)(O)O)cc3)[C@H](CC(=O)O)C(=O)NC3(CCCCC3)C(=O)N[C@@H](CC(N)=O)C(=O)NC2)c1 : 0.17
3. Cc1ccc2c(ccn2C[C@@H]2C/C=C/[C@H](c3ccc(CP(=O)(O)Cc4ccccc4)cc3)[C@H](CC(=O)O)C(=O)NC3(CCCCC3)C(=O)N[C@@H](CC(N)=O)C(=O)NC2)c1 : 1.55
4. NC(=O)C[C@H](NC(=O)C1(NC(=O)[C@@H](CC(=O)O)Cc2ccc(CP(=O)(O)O)cc2)CCN(C(=O)OCCc2ccccc2)CC1)C(=O)NCCCc1ccc2ccccc2c1 : 1.56
5. COCCOC(=O)N1CCC(NC(=O)[C@@H](CC(=O)O)Cc2ccc(CP(=O)(O)O)cc2)(C(=O)N[C@@H](CC(N)=O)C(=O)NCCCc2ccc3ccccc3c2)CC1 : 2.31
6. Cc1ccc2c(ccn2C[C@@H]2C/C=C/[C@H](c3ccc(CC(=O)O)cc3)[C@H](CC(=O)O)C(=O)NC3(CCCCC3)C(=O)N[C@@H](CC(N)=O)C(=O)NC2)c1 : 1.52
7. COC(=O)N1CCC(NC(=O)[C@@H](CC(=O)O)Cc2ccc(CP(=O)(O)O)cc2)(C(=O)N[C@@H](CC(N)=O)C(=O)NCCCc2ccc3ccccc3c2)CC1 : 2.03
